Please respond with reported kon for every item in the list.
tested.on: T1, human IgE; monoclonal antibody SE44 (human, UniProt P01854-1 1-428)
T1 construct: domain: human e constant region; also called IgE (SE44); human monoclonal IgE (SE44)
protocol: BIAcore SPR, antibody captured via anti-human IgG, IgE SE44 3.125-25 nM in flow, 25°C
Field format: number, assumed M⁻¹ s⁻¹, no unit text.

GET /values?readout=kon&item= reshaped human C21 antibody C21-H3/L3 (antibody, V domains shown) VH: QVQLVQSGAEVKKPGASVKVSCKASGYTFSMYWLEWVRQAPGHGLEWVGEISPGTFTTNYNEKFKARATFTADTSTNTAYMELSSLRSEDTAVYYCARFSHFSGSNYDYFDYWGQGTLVTVSS VL: EIVLTQSPGTLSLSPGERATLSCRASQSIGTNIHWYQQKPGQAPRLLIKYASESISGIPSRFSGSGSGTDFTLTISRLEPEDFAMYYCQQSDSWPTTFGQGTKVEIK
260000

GET /values?readout=kon&item= reshaped human C21 antibody C21-H3/L2 (antibody, V domains shown) VH: QVQLVQSGAEVKKPGASVKVSCKASGYTFSMYWLEWVRQAPGHGLEWVGEISPGTFTTNYNEKFKARATFTADTSTNTAYMELSSLRSEDTAVYYCARFSHFSGSNYDYFDYWGQGTLVTVSS VL: DILLTQSPGTLSLSPGERATLSCRASQSIGTNIHWYQQKPGQAPRLLIKYASESISGIPDRFSGSGSGTDFTLTISRLEPEDFAMYYCQQSDSWPTTFGQGTKVEIK
250000

GET /values?readout=kon&item= reshaped human C21 antibody C21-Hay3/L2 (antibody, V domains shown) VH: QVQLVQSGAEVKKPGASVKVSCKASGYTFSMYWLEWVRQAPGQRLEWMGEISPGTFTTNYNEKFKARATFTADTSASTAYMELSSLRSEDTAVYYCARFSHFSGSNYDYFDYWGQGTLVTVSS VL: DILLTQSPGTLSLSPGERATLSCRASQSIGTNIHWYQQKPGQAPRLLIKYASESISGIPDRFSGSGSGTDFTLTISRLEPEDFAMYYCQQSDSWPTTFGQGTKVEIK
250000

All values here come from patent EP1452542A2.
